These measurements were taken from patent US20240409629A1.

studySystem: T1, human CLDN18.2 (human)
T1 construct: also called claudin18.2
assayText: FACS, KATOIII cells (natural CLDN18.2)
readoutLabel: EC50 (nM)
Write the number in nM without appending the unit.

>  <binder>
chimeric antibody xi40F6 (antibody, human IgG1, kappa, V domains shown, Mouse variable regions on human IgG1/kappa; defucosylated, expressed in FUT8-knockout CHO-S cells; also called chimeric 40F6) VH: QVQLKESGPGLVAPSQSLSITCTVSGFSLTSYGVYWVRQSPGKGLEWLGVVWAGGNTNYNSALMSRLSISKDNSKSQVFLKMNSLQTDDTAMYYCARDRGRLLAMDYWGQGTSVTVSS VL: DVVMTQSPSSLSVSAGEKVTMSCKSSQSLLNSGNQKNYLAWYQQKPGQPPKLLIYGASTRESGVPDRFTGSGSGTDFTLTISSVQAEDLAVYYCQNDHFFPFTFGSGTKLEIKR

>  <readoutLabel>
EC50

>  <reportedResult>
7.02

$$$$
>  <binder>
humanized antibody hz40F6-2.2 (antibody, human IgG1, kappa, V domains shown) VH: QVQLVESGGGVVQPGRSLRLSCAASGFTLTSYGVYWVRQAPGKGLEWVAVVWAGGNTNYNSALMSRFTISKDNSKSTLYLQMNSLRAEDTAVYYCARDRGRLLAMDYWGQGTLVTVSS VL: DIVMTQSPDSLAVSLGERATINCKSSQSLLNSGNQKNYLAWYQQKPGQPPKLLIYGASTRESGVPDRFSGSGSGTDFTLTISSLQAEDVAVYYCQNDYFFPFTFGQGTKVEIKR

>  <readoutLabel>
EC50

>  <reportedResult>
7.54

$$$$

// next item, EC50 requested
What value of EC50 has been reported for the following binder? humanized antibody hz40F6-1.1 (antibody, human IgG1, kappa, V domains shown) VH: QVQLVESGGGVVQPGRSLRLSCAASGFTLTSYGVYWVRQAPGKGLEWVAVVWAGGNTNYADSVKGRFTISKDNSKSTLYLQMNSLRAEDTAVYYCARDRGRLLAMDYWGQGTLVTVSS VL: DIVMTQSPDSLAVSLGERATINCKSSQSLLNSGNQKNYLAWYQQKPGQPPKLLIYGASTRESGVPDRFTGSGSGTDFTLTISSLQAEDVAVYYCQNDHFFPFTFGQGTKVEIKR
8.24
